PARAMETER: melting point (°C)

>>> df
                                   molecule      parameter  recorded_value
0  COC(=O)Nc1nc2cc(C(=O)c3ccc(F)cc3)ccc2[nH]1  melting point             260
1                         Cc1cc(Cl)cc(C)c1N  melting point              48
2  CC(=O)OCC(=O)C1(O)CCC2(O)C3CCC4=CC(=O)CCC4(C)C3CCC12C (stereo unspecified)  melting point             236
3                         COc1cc(C)oc(=O)c1  melting point              86
4                               Cc1ccc[nH]1  melting point           -35.6
5  CN(c1c(F)c(F)c(-c2c(F)c(F)c(F)c(F)c2F)c(F)c1F)[N+](=O)[O-]  melting point             140
6                     O=C(/C=C/O)CCc1ccccc1  melting point             150
7  C/C(=N/NC(N)=O)C1=CC2(C)CCC1C2(C)C (stereo unspecified)  melting point             218

1 = c1ccc(SCSc2ccccc2)cc1
2 = Nc1cccc([N+](=O)[O-])c1N
3 = CC(C)(C)OC(=O)C1(S(=O)(=O)c2ccc(Cl)cc2)CC1
4 = Clc1cc(Cl)c2ccccc2c1
5 = CCCCCCCCCCCC(C)CC (stereo unspecified)
INPUT: List items by melting point in falling order. # list labels per requested ordering
OUTPUT: 2, 3, 4, 1, 5

* * *

PARAMETER: melting point (°C)

Known melting point results, listed for orientation:
                                   molecule      parameter  recorded_value
0                     O=C1CCC(=O)N1c1ccccc1  melting point             156
1  C/C(=N\Nc1ccccc1)c1nc2c(ccc3ccccc32)nc1C  melting point             209
2                        Cc1ccc(C(=O)O)cc1I  melting point             208
3  CNC1=CC(=O)C2(C)CCC1C2(C)C (stereo not drawn)  melting point             195

I = FC(F)(F)c1nnc(S)n1-n1cccc1
II = CC(=O)c1cccc2ccccc12
INPUT: For this pair, I and II , which shows a numerically higher melting point? # answer = label of selected item
OUTPUT: I
(I: 165 °C, II: 34 °C)

* * *

PARAMETER: melting point (°C)

Some entries whose results are on file:
>>> df
                                   molecule  recorded_value
0  Cc1cc(C)n2nc(N)c(/N=N/c3cc(Cl)ccc3Cl)c2n1             279
1          CC1CCCC(=O)C1 (stereo not drawn)             -73
2                          Oc1ccccc1C1CCCC1            34.5
3  C=C1C(=CC=C2CCCC3(C)C2CCC3C(C)CCCC(C)C)CC(O)CC1O (stereo not drawn)             136
4                           CCCCCCN1CCCC1=O               4

P = ClCC(Cl)C(Cl)=C(Cl)C(Cl)CCl (stereo not drawn)
Q = COc1cc(N)ncn1
R = CCCCc1cc2c(O)c(C(=O)OC)cnc2cc1OCc1ccccc1
INPUT: Sort the molecules on melting point; start with the lowest figure. Returns: the labels listed in the requested order.
OUTPUT: P, Q, R
(P: 58.5 °C, Q: 100 °C, R: 288 °C)
